Settings: in n-propanol, 308.15 K

record.smiles: O=P(O)(O)c1ccccc1
solubility (mole fraction): 0.311

----------
Details: in methanol, 313.15 K

record.smiles: O=P(O)(O)c1ccccc1
solubility (mole fraction): 0.369

----------
Conditions: in isopropanol, 313.15 K

record.smiles: O=P(O)(O)c1ccccc1
solubility (mole fraction): 0.331

----------
Conditions: in 2-methoxyethanol, 298.15 K

record.smiles: O=P(O)(O)c1ccccc1
solubility (mole fraction): 0.383

----------
Conditions: in 2-butoxyethanol, 298.15 K
endpoint.name: solubility (mole fraction)

record.smiles: O=P(O)(O)c1ccccc1
endpoint.name: solubility (mole fraction)
reported.result: 0.243

----------
Conditions: in n-butanol, 278.15 K
endpoint.name: solubility (mole fraction)

record.smiles: O=P(O)(O)c1ccccc1
reported.result: 0.193

----------
Settings: in methanol, 303.15 K
endpoint.name: solubility (mole fraction)

record.smiles: O=P(O)(O)c1ccccc1
reported.result: 0.347

----------
Conditions: in n-hexanol, 333.15 K

record.smiles: O=P(O)(O)c1ccccc1
solubility (mole fraction): 0.297

----------
Details: in methanol, 273.15 K

record.smiles: O=P(O)(O)c1ccccc1
solubility (mole fraction): 0.29

----------
Conditions: in 2-methoxyethanol, 283.15 K

record.smiles: O=P(O)(O)c1ccccc1
solubility (mole fraction): 0.348

----------
Settings: in 1,4-dioxane, 318.15 K
endpoint.name: solubility (mole fraction)

record.smiles: O=P(O)(O)c1ccccc1
endpoint.name: solubility (mole fraction)
reported.result: 0.307

----------
Conditions: in n-hexanol, 328.15 K

record.smiles: O=P(O)(O)c1ccccc1
solubility (mole fraction): 0.278

----------
Details: in 2-ethoxyethanol, 293.15 K
endpoint.name: solubility (mole fraction)

record.smiles: O=P(O)(O)c1ccccc1
endpoint.name: solubility (mole fraction)
reported.result: 0.339

----------
Conditions: in n-pentanol, 323.15 K
endpoint.name: solubility (mole fraction)

record.smiles: O=P(O)(O)c1ccccc1
reported.result: 0.287

----------
Settings: in n-heptanol, 278.15 K
endpoint.name: solubility (mole fraction)

record.smiles: O=P(O)(O)c1ccccc1
endpoint.name: solubility (mole fraction)
reported.result: 0.122

----------
Settings: in 2-methoxyethanol, 328.15 K

record.smiles: O=P(O)(O)c1ccccc1
solubility (mole fraction): 0.468

----------
Details: in ethanol, 318.15 K

record.smiles: O=P(O)(O)c1ccccc1
solubility (mole fraction): 0.371

----------
Conditions: in 2-butoxyethanol, 323.15 K
endpoint.name: solubility (mole fraction)

record.smiles: O=P(O)(O)c1ccccc1
reported.result: 0.317

----------
Conditions: in 2-methoxyethanol, 303.15 K

record.smiles: O=P(O)(O)c1ccccc1
solubility (mole fraction): 0.397

----------
Conditions: in ethanol, 333.15 K
endpoint.name: solubility (mole fraction)

record.smiles: O=P(O)(O)c1ccccc1
endpoint.name: solubility (mole fraction)
reported.result: 0.407

----------
Settings: in ethanol, 308.15 K

record.smiles: O=P(O)(O)c1ccccc1
solubility (mole fraction): 0.347

----------
Settings: in 1,4-dioxane, 308.15 K
endpoint.name: solubility (mole fraction)

record.smiles: O=P(O)(O)c1ccccc1
reported.result: 0.264

----------
Conditions: in 1,4-dioxane, 323.15 K

record.smiles: O=P(O)(O)c1ccccc1
solubility (mole fraction): 0.336

----------
Conditions: in n-butanol, 328.15 K

record.smiles: O=P(O)(O)c1ccccc1
solubility (mole fraction): 0.337

----------
Conditions: in 2-ethoxyethanol, 303.15 K
endpoint.name: solubility (mole fraction)

record.smiles: O=P(O)(O)c1ccccc1
endpoint.name: solubility (mole fraction)
reported.result: 0.363

----------
Conditions: in isopropanol, 283.15 K
endpoint.name: solubility (mole fraction)

record.smiles: O=P(O)(O)c1ccccc1
reported.result: 0.251

----------
Conditions: in n-pentanol, 283.15 K
endpoint.name: solubility (mole fraction)

record.smiles: O=P(O)(O)c1ccccc1
endpoint.name: solubility (mole fraction)
reported.result: 0.175

----------
Settings: in isopropanol, 333.15 K
endpoint.name: solubility (mole fraction)

record.smiles: O=P(O)(O)c1ccccc1
reported.result: 0.394

----------
Settings: in 2-methoxyethanol, 323.15 K

record.smiles: O=P(O)(O)c1ccccc1
solubility (mole fraction): 0.453

----------
Conditions: in 2-butoxyethanol, 278.15 K
endpoint.name: solubility (mole fraction)

record.smiles: O=P(O)(O)c1ccccc1
endpoint.name: solubility (mole fraction)
reported.result: 0.199

----------
Conditions: in 2-propoxyethanol, 288.15 K

record.smiles: O=P(O)(O)c1ccccc1
solubility (mole fraction): 0.266

----------
Conditions: in 2-ethoxyethanol, 318.15 K

record.smiles: O=P(O)(O)c1ccccc1
solubility (mole fraction): 0.404

----------
Conditions: in 1,4-dioxane, 298.15 K

record.smiles: O=P(O)(O)c1ccccc1
solubility (mole fraction): 0.224

----------
Conditions: in n-hexanol, 303.15 K

record.smiles: O=P(O)(O)c1ccccc1
solubility (mole fraction): 0.202

----------
Conditions: in 2-butoxyethanol, 283.15 K
endpoint.name: solubility (mole fraction)

record.smiles: O=P(O)(O)c1ccccc1
endpoint.name: solubility (mole fraction)
reported.result: 0.208

----------
Settings: in n-octanol, 303.15 K
endpoint.name: solubility (mole fraction)

record.smiles: O=P(O)(O)c1ccccc1
endpoint.name: solubility (mole fraction)
reported.result: 0.161

----------
Settings: in 1,4-dioxane, 333.15 K
endpoint.name: solubility (mole fraction)

record.smiles: O=P(O)(O)c1ccccc1
reported.result: 0.388

----------
Details: in n-heptanol, 328.15 K
endpoint.name: solubility (mole fraction)

record.smiles: O=P(O)(O)c1ccccc1
reported.result: 0.26

----------
Settings: in 1,4-dioxane, 293.15 K
endpoint.name: solubility (mole fraction)

record.smiles: O=P(O)(O)c1ccccc1
reported.result: 0.208

----------
Conditions: in 2-butoxyethanol, 303.15 K

record.smiles: O=P(O)(O)c1ccccc1
solubility (mole fraction): 0.258

----------
Conditions: in n-pentanol, 333.15 K

record.smiles: O=P(O)(O)c1ccccc1
solubility (mole fraction): 0.323

----------
Conditions: in n-heptanol, 318.15 K

record.smiles: O=P(O)(O)c1ccccc1
solubility (mole fraction): 0.227

----------
Details: in 2-butoxyethanol, 318.15 K

record.smiles: O=P(O)(O)c1ccccc1
solubility (mole fraction): 0.298

----------
Settings: in 2-ethoxyethanol, 333.15 K

record.smiles: O=P(O)(O)c1ccccc1
solubility (mole fraction): 0.454

----------
Details: in 2-methoxyethanol, 293.15 K
endpoint.name: solubility (mole fraction)

record.smiles: O=P(O)(O)c1ccccc1
endpoint.name: solubility (mole fraction)
reported.result: 0.371

----------
Details: in methanol, 293.15 K
endpoint.name: solubility (mole fraction)

record.smiles: O=P(O)(O)c1ccccc1
reported.result: 0.324

----------
Conditions: in 2-methoxyethanol, 333.15 K
endpoint.name: solubility (mole fraction)

record.smiles: O=P(O)(O)c1ccccc1
reported.result: 0.483

----------
Conditions: in n-heptanol, 283.15 K
endpoint.name: solubility (mole fraction)

record.smiles: O=P(O)(O)c1ccccc1
reported.result: 0.133

----------
Conditions: in n-propanol, 298.15 K

record.smiles: O=P(O)(O)c1ccccc1
solubility (mole fraction): 0.286

----------
Settings: in methanol, 298.15 K
endpoint.name: solubility (mole fraction)

record.smiles: O=P(O)(O)c1ccccc1
reported.result: 0.335

----------
Details: in 2-propoxyethanol, 298.15 K
endpoint.name: solubility (mole fraction)

record.smiles: O=P(O)(O)c1ccccc1
endpoint.name: solubility (mole fraction)
reported.result: 0.295

----------
Settings: in n-pentanol, 278.15 K

record.smiles: O=P(O)(O)c1ccccc1
solubility (mole fraction): 0.161

----------
Conditions: in acetone, 293.15 K

record.smiles: O=P(O)(O)c1ccccc1
solubility (mole fraction): 0.144

----------
Conditions: in n-propanol, 278.15 K

record.smiles: O=P(O)(O)c1ccccc1
solubility (mole fraction): 0.236

----------
Conditions: in ethanol, 328.15 K
endpoint.name: solubility (mole fraction)

record.smiles: O=P(O)(O)c1ccccc1
reported.result: 0.394

----------
Settings: in 2-methoxyethanol, 288.15 K

record.smiles: O=P(O)(O)c1ccccc1
solubility (mole fraction): 0.359

----------
Conditions: in n-heptanol, 313.15 K
endpoint.name: solubility (mole fraction)

record.smiles: O=P(O)(O)c1ccccc1
endpoint.name: solubility (mole fraction)
reported.result: 0.212

----------
Settings: in n-pentanol, 313.15 K
endpoint.name: solubility (mole fraction)

record.smiles: O=P(O)(O)c1ccccc1
reported.result: 0.258

----------
Settings: in n-hexanol, 283.15 K

record.smiles: O=P(O)(O)c1ccccc1
solubility (mole fraction): 0.146

----------
Settings: in ethanol, 288.15 K
endpoint.name: solubility (mole fraction)

record.smiles: O=P(O)(O)c1ccccc1
endpoint.name: solubility (mole fraction)
reported.result: 0.305

----------
Conditions: in acetone, 303.15 K

record.smiles: O=P(O)(O)c1ccccc1
solubility (mole fraction): 0.178

----------
Settings: in n-butanol, 313.15 K

record.smiles: O=P(O)(O)c1ccccc1
solubility (mole fraction): 0.29

----------
Conditions: in 2-methoxyethanol, 278.15 K

record.smiles: O=P(O)(O)c1ccccc1
solubility (mole fraction): 0.342
